Kindly state Relative MFI for each of the entries shown.
# target.or.test.system: T1, human CCR8 (human, UniProt P51685 1-355)
# T1 construct: the assay field says which; also called hCCR8; huCCR8
# protocol.text: flow cytometry, CHO-huCCR8.Gna15 cells, relative to rb.Ab5
Number only, in ratio; omit the unit.

Query: Supply recorded Relative MFI for hu.Ab5.H10L1 (antibody, human IgG1, kappa, V domains shown) VH: EQQLLESGGGLVQPGGSLRLSCAVSGIDLSTYAMGWVRQAPGKGLEWIGLIHRSGRTYYATWAKGRFTISKDSSKTTVYLQMNSLRAEDTAVYYCTRSYPDYSATASIWGPGTTVTVSS VL: DIQVTQSPSSLSASVGDRVTITCQASENIANALAWYQQKPGKPPKFLIYGASNLASGVPSRFSGSGSGTDFTFTISSLQPEDIATYYCQQAYYGNSFVEGTFGGGTKVEIKR here.
Reply: 0.87

Query: Supply recorded Relative MFI for hu.Ab5.H3L1 (antibody, human IgG1, kappa, V domains shown) VH: EQQLLESGGGLVQPGGSLRLSCAASGIDLSTYAMGWVRQAPGKGLEWIGLIHRSGRTYYATWAKGRFTISKDSSKTTVYLQMNSLRAEDTAVYFCTRSYPDYSATASIWGPGTTVTVSS VL: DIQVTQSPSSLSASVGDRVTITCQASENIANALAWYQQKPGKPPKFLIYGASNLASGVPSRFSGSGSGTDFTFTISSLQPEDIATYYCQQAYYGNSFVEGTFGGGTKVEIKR here.
Reply: 1

Query: Supply recorded Relative MFI for rb.Ab5 (antibody, V domains shown, Rabbit variable regions; also called parental rabbit antibody Ab5) VH: QSVEESGGRLVSPGTPLTLTCTVSGIDLSTYAMGWVRQAPGKGLEWIGLIHRSGRTYYATWAKGRFTISKTSSTTVDLKITSPTTEDTATYFCTRSYPDYSATASIWGPGTLVTVSS VL: DIVVTQTPASVEAAVGGTVTIKCQASENIANALAWYQQKSGQPPMFLIYGASNLASGVSSRFKGSGSGTEFTLTISDLECADAAVYYCQCAYYGNSFVEGTFGGGTEVVVK here.
Reply: 1

Query: Supply recorded Relative MFI for hu.Ab5.H9L1 (antibody, human IgG1, kappa, V domains shown) VH: EQQLLESGGGLVQPGGSLRLSCAVSGIDLSTYAMGWVRQAPGKGLEWIGLIHRSGRTYYATWAKGRFTISKDSSKTTLYLQMNSLRAEDTAVYFCTRSYPDYSATASIWGPGTTVTVSS VL: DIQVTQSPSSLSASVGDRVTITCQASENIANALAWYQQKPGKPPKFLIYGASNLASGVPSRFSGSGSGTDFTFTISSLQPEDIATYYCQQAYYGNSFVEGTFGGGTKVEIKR here.
Reply: 0.92
